# measured on: T1, FR3exFc (human)
# T1 construct: also called FGFR3/Fc; FR3/Fc
# protocol details: BIACORE, FGFR3 captured on an anti-Fc chip
test readout: pKd
FYI, pKd means -log10 of a concentration in mol per litre.

binder	pKd
MSPRO54 (Fab, V domains shown) VH: QVQLVQSGAEVKKPGASVKVSCKASGYTFTSYYMHWVRQAPGQGLEWMGWINPNSGGTNYAQKFQGRVTMTRDTSISTAYMELSSLRSEDTAVYYCARNMAYTNYQYVNMPHFDYWGQGTLVTVSS VL: DIELTQPPSVSVAPGQTARISCSGDALGDKYASWYQQKPGQAPVLVIYDDSDRPSGIPERFSGSNSGNTATLTISGTQAEDEADYYCQSYDYFKLVFGGGTKLTVLG	8.43
MSPRO26 (Fab, V domains shown) VH: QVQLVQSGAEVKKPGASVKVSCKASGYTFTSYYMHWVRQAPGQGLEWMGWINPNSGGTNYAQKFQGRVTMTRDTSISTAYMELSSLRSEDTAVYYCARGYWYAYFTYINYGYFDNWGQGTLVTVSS VL: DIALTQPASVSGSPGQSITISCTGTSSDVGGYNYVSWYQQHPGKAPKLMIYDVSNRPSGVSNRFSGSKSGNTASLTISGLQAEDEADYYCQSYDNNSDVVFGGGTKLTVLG	8.40

Please turn your attention to the following entry.
Memo: MSPRO2 (Fab, V domains shown) VH: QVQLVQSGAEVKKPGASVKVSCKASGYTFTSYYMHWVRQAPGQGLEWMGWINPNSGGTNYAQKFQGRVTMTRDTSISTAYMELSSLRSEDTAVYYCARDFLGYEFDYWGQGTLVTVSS VL: DIELTQPPSVSVAPGQTARISCSGDALGDKYASWYQQKPGQAPVLVIYDDSDRPSGIPERFSGSNSGNTATLTISGTQAEDEADYYCQSYDYSADYVFGGGTKLTVLG , reported pKd: 7.43
